Each recorded value in this set is attributed to PubChem BioAssay AID1963833.

Tested on: 883617-216-R-J1-PDC complex spheroid viability;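 further: spheroids exposed to compounds for seven days before readout; 100% = DMSO vehicle control viability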
test.method.notes: Anticancer human tumor 883617-216-R-J1-PDC patient-derived bladder carcinoma cell line growth inhibition [POLQ]
cond: second compound 0.0316 µM; first compound 10 µM; active compounds read low
Experimental: Multicellular complex tumor spheroid response to Polymerase (POL) inhibitors (novobiocin, ART-558, RP6685) in combination with a variety of drugs and investigational agents in selected tumor cell lines The POL inhibitors (novobiocin, ART-558, and RP6685) were evaluated both individually and in combination with standard of care and investigational anticancer small molecules within a complex spheroid model of solid tumors. . […]
readout.label: viability, T/C

CC1COCCN1c1cc(-c2ccnn2C)c2ccnc(-c3ccn[nH]3)c2n1 (stereo unspecified) + COC1C(OC(N)=O)C(O)C(Oc2ccc3c(O)c(NC(=O)c4ccc(O)c(CC=C(C)C)c4)c(=O)oc3c2C)OC1(C)C : 30.7%

Exercise: Which measured viability, T/C value corresponds to COc1cc2cc(C(=O)CCC(=O)O)sc2cc1OC + COC1C(OC(N)=O)C(O)C(Oc2ccc3c(O)c(NC(=O)c4ccc(O)c(CC=C(C)C)c4)c(=O)oc3c2C)OC1(C)C ?
Key: 90.9%

Exercise: Which measured viability, T/C value corresponds to Nc1ccn(C2OC(CO)C(O)C2(F)F)c(=O)n1 (stereo unspecified) + Cc1cccc(N(C)C(=O)C2C(O)CCN2c2nc(C)cc(C(F)(F)F)c2C#N)c1 ?
Key: 31.1%

Exercise: Which measured viability, T/C value corresponds to CCc1cc2c(N3CCc4c(cc(Cn5ccnc5)cc4-c4cn(C)nc4C(F)(F)F)C3=O)ccnc2c(OC)n1 + Cc1cccc(N(C)C(=O)C2C(O)CCN2c2nc(C)cc(C(F)(F)F)c2C#N)c1 ?
Key: 53.5%

Exercise: Which measured viability, T/C value corresponds to CNCc1ccc(-c2[nH]c3cc(F)cc4c3c2CCNC4=O)cc1 + COC1C(OC(N)=O)C(O)C(Oc2ccc3c(O)c(NC(=O)c4ccc(O)c(CC=C(C)C)c4)c(=O)oc3c2C)OC1(C)C ?
Key: 80.7%
